tested on: Aβ42; assay: Screening for γ-secretase-modulating activity in SKNBE2 cells carrying APP 695 wild type: Aβ42 in cell supernatant (Alphalisa); type: cell-based; conditions: Homo sapiens, SKNBE2, SKNBE2 cells carrying APP 695 wild type, overnight incubation
pIC50: −log10 of the molar value.
property: pIC50

| molecule | property | recordedMeasurement |
| --- | --- | --- |
| COc1cc(Nc2nc3c(-c4ccccc4Cl)cccn3n2)ccc1-n1cnc(C)c1 [Compound 7] | pIC50 | 8.15 |
| COc1cc(Nc2nc3c(N4CCCC(C(F)(F)F)C4)cccn3n2)ccc1-c1ccnc(C)c1 (stereo not drawn) [Compound 181] | pIC50 | 7.80 |
| COc1cc(Nc2nc3n(n2)CCCC3c2ccc(F)cc2C)ccc1-c1ccnc(C)c1 (stereo not drawn) [Compound 91] | pIC50 | 7.60 |
| COc1cc(C2CCCn3nc(Nc4ccc(-c5ccnc(C)c5)cc4)nc32)ccc1F (stereo not drawn) [Compound 106] | pIC50 | 7.40 |
| COc1cc(Nc2nc3c(-c4cccc(C(F)(F)F)c4)cccn3n2)ccc1-n1cnc(C)c1 [Compound 20] | pIC50 | 8.30 |
| Cc1cc(-c2ccc(Nc3nc4n(n3)CCC[C@H]4c3ccc(F)cc3C)cc2)ccn1 [Compound 94] | pIC50 | 7.25 |
| COc1cc(Nc2nc3n(n2)CCCC3c2ccccc2C(F)(F)F)ccc1-c1ccnc(C)c1 (stereo not drawn) [Compound 43] | pIC50 | 7.80 |
| COc1cc(Nc2nc3c(-c4ccc(F)cc4)c(C)ccn3n2)ccc1-c1ccnc(C)c1 [Compound 74] | pIC50 | 7.82 |
| COc1ccc(F)c(C2CCCn3nc(Nc4ccc(-c5ccnc(C)c5)cc4)nc32)c1 (stereo not drawn) [Compound 183] | pIC50 | 7.39 |
| COc1cc(Nc2nc3c(-c4ccccc4C(F)(F)F)cccn3n2)ccc1-c1ocnc1C [Compound 23] | pIC50 | 7.89 |
| COc1cc(Nc2nc3n(n2)CCCC3c2ccc(F)cc2)ccc1-n1cnc(C)c1 (stereo not drawn) [Compound 5] | pIC50 | 7.74 |
| COc1cc(Nc2nc3n(n2)CCCC3c2cccc(F)c2)ccc1-n1cnc(C)c1 (stereo not drawn) [Compound 30] | pIC50 | 7.31 |
| COc1cc(Nc2nc3n(n2)CCCC3c2ccc(F)cc2F)ccc1-c1ccnc(C)c1 (stereo not drawn) [Compound 82] | pIC50 | 7.41 |
| COc1cc(Nc2nc3n(n2)CCC(c2ccccc2C(F)(F)F)C3)ccc1-n1cnc(C)c1 (stereo not drawn) [Compound 51] | pIC50 | 7.21 |
| COc1cc(Nc2nc3n(n2)CCCC3c2ccc(F)cc2)ccc1-c1ccnc(C)c1 (stereo not drawn) [Compound 1] | pIC50 | 7.80 |
| COc1nc(Nc2nc3n(n2)CCCC3c2ccccc2Cl)ccc1-n1cnc(C)c1 (stereo not drawn) [Compound 18] | pIC50 | 6.95 |
| COc1cc(Nc2nc3n(n2)CCCC3c2cc(C(F)(F)F)ccc2F)ccc1-c1ccnc(C)c1 (stereo not drawn) [Compound 182] | pIC50 | 7.36 |
| COc1cc(Nc2nc3cc(-c4ccccc4C(F)(F)F)ccn3n2)ccc1-n1cnc(C)c1 [Compound 21] | pIC50 | 6.94 |
| COc1cc(Nc2nc3n(n2)CCCC3c2ccccc2C(F)(F)F)ccc1-c1ocnc1C (stereo not drawn) [Compound 38] | pIC50 | 7.54 |
| Cc1cc(-c2ccc(Nc3nc4n(n3)CCCC4c3ccc(F)cc3F)cc2)ccn1 (stereo not drawn) [Compound 81] | pIC50 | 7.16 |
| Cc1cc(-c2ccc(Nc3nc4n(n3)CCC[C@@H]4c3ccc(F)cc3C)cc2)ccn1 [Compound 93] | pIC50 | 7.37 |
| Cc1cc(-c2ccc(Nc3nc4n(n3)CCOC4c3ccccc3C(F)(F)F)cc2F)ccn1 (stereo not drawn) [Compound 86] | pIC50 | 7.32 |
| Cc1cc(-c2ccc(Nc3nc4n(n3)CCCC4c3ccc(F)cc3C)cc2)ccn1 (stereo not drawn) [Compound 90] | pIC50 | 7.25 |
| COc1cc(Nc2nc3n(n2)CCCC3c2ccc(F)cc2C)ccc1-n1cnc(C)c1 (stereo not drawn) [Compound 32] | pIC50 | 7.92 |
| COc1cc(F)cc(C2CCCn3nc(Nc4ccc(-c5ccnc(C)c5)cc4)nc32)c1 (stereo not drawn) [Compound 185] | pIC50 | 7.55 |
| COc1cc(Nc2nc3n(n2)C(c2ccccc2C(F)(F)F)CCC3)ccc1-c1ccnc(C)c1 (stereo not drawn) [Compound 52] | pIC50 | 6.74 |
| COc1cc(Nc2nc3n(n2)CCOC3c2ccccc2C(F)(F)F)ccc1-c1ccnc(C)c1 (stereo not drawn) [Compound 65] | pIC50 | 7.28 |
| Cc1cc(-c2ccc(Nc3nc4c(-c5ccccc5Cl)cccn4n3)cc2F)ccn1 [Compound 25] | pIC50 | 7.82 |
| COc1cc(Nc2nc3c(-c4ccc(F)cc4C(F)(F)F)cccn3n2)ccc1-n1cnc(C)c1 [Compound 6] | pIC50 | 8.15 |
| COc1cc(Nc2nc3n(n2)CCCC3c2c(F)cccc2Cl)ccc1-c1ccnc(C)c1 (stereo not drawn) [Compound 110] | pIC50 | 7.30 |
| Cc1cc(-c2ccc(Nc3nc4n(n3)CCOC4c3ccccc3Cl)cc2F)ccn1 (stereo not drawn) [Compound 88] | pIC50 | 7.44 |
| COc1cc(Nc2nc3n(n2)CCCC3c2cccc(F)c2)ccc1-c1ccnc(C)c1 (stereo not drawn) [Compound 44] | pIC50 | 7.41 |
| COc1cc(Nc2nc3n(n2)CCCC3c2cccc(N(C)C)c2)ccc1-c1ccnc(C)c1 (stereo not drawn) [Compound 111] | pIC50 | 7.25 |

* * *

Tested on: Aβtotal
Assay: Screening for γ-secretase-modulating activity in SKNBE2 cells carrying APP 695 wild type: Aβtotal in cell supernatant (Alphalisa)
Assay type: cell-based
Conditions: Homo sapiens, overnight incubation
Text: Pharmacology A) Screening of the Compounds of the Invention for γ-Secretase-Modulating Activity […] Aβtotal and Aβ42 concentrations were quantified in the cell supernatant using the Aphalisa technology (Perkin Elmer). […] To quantify the amount of Aβ42 in the cell supernatant, monoclonal antibody specific to the C-terminus of Aβ42 (JRF/cAβ42/26) was coupled to the receptor beads and biotinylated antibody specific to the N-terminus of Aβ (JRF/AβN/25) was used to react with the donor beads. […]
Structures can show the parent of a compound that is named as a salt.

| compound | IC50 |
| --- | --- |
| COc1cc(Nc2nc3c(-c4cc(C(F)(F)F)ccc4F)cccn3n2)ccc1-n1cnc(C)c1 | 8.13 µM |
| COc1cc(Nc2nc3c(-c4ccc(F)cc4C)nccn3n2)ccc1-n1cnc(C)c1 | > 10 µM |
| COc1cc(Nc2nc3n(n2)CCCC3c2ccccc2Cl)ccc1-n1cnc(C)c1 (centres unmarked) | 8.51 µM |
| COc1cc(Nc2nc3n(n2)CCCC3c2ccc(F)cc2F)ccc1-c1ccnc(C)c1 (centres unmarked) | > 10 µM |
| COc1cc(Nc2nc3c(-c4ccccc4C(F)(F)F)cccn3n2)ccc1-c1ocnc1C | > 10 µM |
| COc1cc(Nc2nc3n(n2)CCC(c2ccccc2C(F)(F)F)C3)ccc1-c1ccnc(C)c1 (centres unmarked) [Compound 62, HCl] | > 10 µM |
| COc1cccc(C2CCCn3nc(Nc4ccc(-c5ccnc(C)c5)cc4)nc32)c1 (centres unmarked) | > 10 µM |
| COc1cc(Nc2nc3cc(-c4ccccc4C(F)(F)F)ccn3n2)ccc1-n1cnc(C)c1 | > 10 µM |

* * *

system: Aβtotal; test: Screening for γ-secretase-modulating activity in SKNBE2 cells carrying APP 695 wild type: Aβtotal in cell supernatant (Alphalisa); format: cell-based; conditions: Homo sapiens, overnight incubation
Form field: IC50 (one value per entry).
property: IC50

| molecule | targetOrSystem | property | recordedMeasurement |
| --- | --- | --- | --- |
| COc1cc(Nc2nc3n(n2)CCNC3c2ccccc2C(F)(F)F)ccc1-n1cnc(C)c1 (centres unmarked) | Aβtotal | IC50 | > 10 µM |
| COc1cc(Nc2nc3n(n2)CCOC3c2ccc(F)cc2F)ccc1-c1ccnc(C)c1 (centres unmarked) | Aβtotal | IC50 | > 10 µM |
| COc1cc(Nc2nc3c(-c4ccc(F)cc4C(F)(F)F)cccn3n2)ccc1-n1cnc(C)n1 | Aβtotal | IC50 | > 10 µM |
| Cc1cc(-c2ccc(Nc3nc4n(n3)CCCC4c3c(F)cccc3Cl)cc2)ccn1 (centres unmarked) | Aβtotal | IC50 | > 10 µM |
| COc1cc(Nc2nc3c(-c4ccccc4C(F)(F)F)cccn3n2)ccc1-n1cnc(C)n1 | Aβtotal | IC50 | > 10 µM |
| Cc1cc(-c2ccc(Nc3nc4n(n3)CCCC4c3ccccc3C(F)(F)F)cc2)c(C)cn1 (centres unmarked) | Aβtotal | IC50 | > 10 µM |
| COc1cccc(C2CCCn3nc(Nc4ccc(-c5ccnc(C)c5)c(F)c4)nc32)c1 (centres unmarked) | Aβtotal | IC50 | > 10 µM |
| COc1cc(Nc2nc3n(n2)CCCC3c2ccccc2C(F)(F)F)ccc1-c1ccnc(C)c1 (centres unmarked) | Aβtotal | IC50 | 7.08 µM |
